- TESTED ON: recombinant human Vps34 (Homo sapiens)
- TEST SUMMARY: Vps34 KinaseGlo assay
- CONDITION CONTEXT: KinaseGlo luminescence ATP detection; PI/OG substrate; 1 μM ATP; room temperature; 8 concentrations, n=2
List of IC50 values.
Reply with just the number (in nM).

Example molecules with recorded IC50:
MOLECULE: CC(=O)Nc1ccc(Nc2nccc(-c3cnc(N)nc3CC3CC3)n2)cc1 [Example 15n]
RESULT UNITS: nM
VALUE REPORTED: 62
--
MOLECULE: CNc1ncc(-c2ccnc(N[C@H]3CC[C@H](O)CC3)n2)c(CC2CC2)n1
RESULT UNITS: nM
VALUE REPORTED: 111
--
MOLECULE: c1cc(Nc2nccc(-c3cnc(NC4CCCC4)nc3CC3CC3)n2)ccn1 [Example 10e]
RESULT UNITS: nM
VALUE REPORTED: 78.5

Please give the measured IC50 for this molecule: OCCNc1ncc(-c2ccnc(Nc3ccncc3)n2)c(CC2CC2)n1 [Example 10m]
11.5

Please give the measured IC50 for this molecule: Nc1ccc(Nc2nccc(-c3cnc(N)nc3CC3CC3)n2)cc1 [Example 15u]
104

----------
- TESTED ON: recombinant human Vps34 (Homo sapiens, UniProt Q8NEB9)
- Sequence (Q8NEB9 whole entry): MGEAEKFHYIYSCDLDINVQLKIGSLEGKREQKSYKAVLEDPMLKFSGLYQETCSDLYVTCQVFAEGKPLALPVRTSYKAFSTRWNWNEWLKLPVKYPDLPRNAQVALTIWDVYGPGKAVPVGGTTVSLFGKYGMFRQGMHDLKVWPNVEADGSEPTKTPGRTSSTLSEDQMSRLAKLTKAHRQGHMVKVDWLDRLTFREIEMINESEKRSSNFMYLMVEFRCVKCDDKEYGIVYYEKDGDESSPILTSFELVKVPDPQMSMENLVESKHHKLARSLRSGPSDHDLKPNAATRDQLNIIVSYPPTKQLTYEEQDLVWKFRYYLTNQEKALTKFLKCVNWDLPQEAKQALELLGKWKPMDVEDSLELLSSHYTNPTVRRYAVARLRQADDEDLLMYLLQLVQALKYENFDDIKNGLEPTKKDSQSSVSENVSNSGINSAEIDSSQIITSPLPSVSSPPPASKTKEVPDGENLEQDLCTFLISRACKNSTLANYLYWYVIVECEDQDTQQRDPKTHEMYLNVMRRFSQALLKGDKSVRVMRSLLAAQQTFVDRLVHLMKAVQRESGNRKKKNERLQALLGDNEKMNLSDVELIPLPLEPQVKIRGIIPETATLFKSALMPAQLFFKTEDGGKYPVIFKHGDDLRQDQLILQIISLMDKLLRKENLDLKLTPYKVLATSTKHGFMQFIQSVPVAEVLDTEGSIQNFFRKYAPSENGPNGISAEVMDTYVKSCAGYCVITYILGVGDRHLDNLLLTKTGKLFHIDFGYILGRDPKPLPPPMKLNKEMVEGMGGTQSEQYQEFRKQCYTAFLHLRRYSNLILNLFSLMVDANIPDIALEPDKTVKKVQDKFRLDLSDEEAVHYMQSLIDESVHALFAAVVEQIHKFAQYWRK
- TEST SUMMARY: Vps34 KinaseGlo assay
- CONDITION CONTEXT: KinaseGlo luminescence ATP detection; PI/OG substrate; 1 μM ATP; room temperature; 8 concentrations, n=2
List of IC50 values.
Reply with just the number (in nM).

Example compounds with recorded IC50:
COMPOUND: CC(C)(O)CNc1ncc(-c2ccnc(N[C@H]3CC[C@H](NS(C)(=O)=O)CC3)n2)c(CC2CC2)n1 [Example 16g]
IC50 / nM: 872
//
COMPOUND: CNc1ncc(-c2ccnc(N[C@H]3CC[C@H](C(=O)O)CC3)n2)c(CC2CC2)n1 [Example 14n]
IC50 / nM: 439
//
COMPOUND: Nc1ncc(-c2ccnc(NCc3cccnc3)n2)c(CC2CC2)n1 [Example 15q]
IC50 / nM: 1290

Please give the measured IC50 for this compound: CC(C)(O)CNc1ncc(-c2ccnc(Nc3ccc(C#N)cc3)n2)c(CC2CC2)n1 [Example 16b]
25

----------
- TESTED ON: recombinant human Vps34 (Homo sapiens)
- TEST SUMMARY: Vps34 KinaseGlo assay
- CONDITION CONTEXT: KinaseGlo luminescence ATP detection; PI/OG substrate; 1 μM ATP; room temperature; 8 concentrations, n=2
- Method: It was then resuspended in 3% OctylGlucoside by vortexing and stored at 4° C. 5 μL of a mix of PI/OG with recombinant human Vps34 were added. […] Reactions were stopped with 10 μl of KinaseGlo and plates were read 10 minutes later in a Synergy2 reader using an integration time of 0.1 seconds per well.
REPORTED ENDPOINT: IC50

Example compounds with recorded IC50:
COMPOUND: CCNc1ncc(-c2ccnc(Nc3ccncc3)n2)c(CC2CC2)n1 [Example 10b]
VALUE REPORTED: 20 nM
--
COMPOUND: Nc1ncc(-c2ccnc(NCCN3CCOCC3)n2)c(CC2CC2)n1 [Example 15s]
VALUE REPORTED: 1660 nM
--
COMPOUND: CCC(C)Nc1ncc(-c2ccnc(Nc3ccncc3)n2)c(CC2CC2)n1 (stereo not drawn) [Example 10s]
VALUE REPORTED: 51.5 nM
--
COMPOUND: c1ccc(CNc2ncc(-c3ccnc(Nc4ccncc4)n3)c(CC3CC3)n2)cc1 [Example 10c]
VALUE REPORTED: 75.5 nM
--
COMPOUND: Cc1nc(N)ncc1-c1ccnc(Nc2ccncc2)n1
VALUE REPORTED: 22.2 nM

Form field: IC50 recorded for Nc1ncc(-c2ccnc(NCc3ccco3)n2)c(CC2CC2)n1 [Example 15k] with recombinant human Vps34 (Homo sapiens) (enter value)
781 nM

Form field: IC50 recorded for `Nc1ncc(-c2ccnc(N[C@H]3CC[C@H](O)CC3)n2)c(CC2CC2)n1` with recombinant human Vps34 (Homo sapiens) (enter value)
264 nM

Form field: IC50 recorded for COc1ncc(-c2ccnc(NC3CCC(O)CC3)n2)c(CC2CC2)n1 (stereo not drawn) with recombinant human Vps34 (Homo sapiens) (enter value)
4000 nM

Form field: IC50 recorded for CS(=O)(=O)N[C@H]1CC[C@H](Nc2nccc(-c3cnc(N)nc3CC3CC3)n2)CC1 [Example 15b] with recombinant human Vps34 (Homo sapiens) (enter value)
199 nM
